- test.protocol: ACHM-025 pharmacokinetic analysis of murine plasma
- Format: in vivo
- setup.conditions: female, NSG, mouse, ip, 25 mg/kg, Cmax, across the dose levels 5, 10, 25 mg/kg IP
measured.parameter: Cmax

INSERT INTO assay_data (smiles_string, assay_value) VALUES
  ('CN1CCN(S(=O)(=O)c2cc([N+](=O)[O-])ccc2N(CCOS(C)(=O)=O)CCOS(C)(=O)=O)CC1', '1.6 to 9.3 µM');

* * *

- test.protocol: Plasma protein binding
- Assay type: in vitro ADME
- setup.conditions: mouse
measured.parameter: fraction unbound at 5 µmol/L

INSERT INTO measurements (compound, assay_value) VALUES
  ('CN1CCN(S(=O)(=O)c2cc([N+](=O)[O-])ccc2N(CCOS(C)(=O)=O)CCOS(C)(=O)=O)CC1 [ACHM-025]', 0.569);

* * *

- test.protocol: ACHM-025 pharmacokinetic analysis of murine plasma
- Format: in vivo
- setup.conditions: female, NSG, mouse, ip, 25 mg/kg, total plasma exposure (AUC0-inf), across the dose levels 5, 10, 25 mg/kg IP
measured.parameter: AUC(0-inf)

INSERT INTO results (smiles_string, measured_parameter, assay_value) VALUES
  ('CN1CCN(S(=O)(=O)c2cc([N+](=O)[O-])ccc2N(CCOS(C)(=O)=O)CCOS(C)(=O)=O)CC1', 'AUC(0-inf)', '0.5 to 3.3 µM·h');

These data points were gathered from paper PMC11542020.
